target_or_test_system: 5-lipoxygenase (Rattus norvegicus, UniProt P12527)
Construct: The supernatant was used as the enzyme solution of 5-lipoxygenase; from tissue; host or cells: peritoneal polymorphonuclear leukocytes (PMNL) of glycogen-injected Wistar-King rats, homogenate supernatant
Sequence (P12527 whole entry): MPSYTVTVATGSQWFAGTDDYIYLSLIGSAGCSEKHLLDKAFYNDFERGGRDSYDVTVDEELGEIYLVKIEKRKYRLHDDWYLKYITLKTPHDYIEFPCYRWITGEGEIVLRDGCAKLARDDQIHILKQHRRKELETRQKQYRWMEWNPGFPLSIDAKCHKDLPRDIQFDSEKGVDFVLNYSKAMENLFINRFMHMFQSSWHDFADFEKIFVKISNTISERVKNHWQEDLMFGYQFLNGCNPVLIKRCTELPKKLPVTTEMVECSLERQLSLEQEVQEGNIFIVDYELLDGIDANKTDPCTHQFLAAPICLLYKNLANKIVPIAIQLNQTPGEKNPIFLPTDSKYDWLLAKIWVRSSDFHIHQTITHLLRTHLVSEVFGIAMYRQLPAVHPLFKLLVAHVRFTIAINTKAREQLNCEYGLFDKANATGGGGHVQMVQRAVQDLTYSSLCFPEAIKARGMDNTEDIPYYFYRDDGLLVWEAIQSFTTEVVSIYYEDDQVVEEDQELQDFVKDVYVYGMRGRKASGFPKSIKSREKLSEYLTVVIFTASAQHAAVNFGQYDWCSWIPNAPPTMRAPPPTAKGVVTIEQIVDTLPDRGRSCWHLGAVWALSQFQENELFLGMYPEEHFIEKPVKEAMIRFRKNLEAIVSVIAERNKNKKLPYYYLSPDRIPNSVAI
experiment_notes: Test of 5-Lipoxygenase Inhibitory Activity (rat PMNL enzyme, radiolabelled arachidonic acid, TLC)
Format: biochemical, Wistar-King rats
cond: rat PMNL enzyme, 37° C., 5 min
Property: IC50; scope: individual compounds
Report only the number, with the unit nM understood.

1) COC(=O)[C@@H](Cc1ccc(O)c(O)c1)OC(=O)/C=C/c1ccc(O)c(O)c1 [Comparison 2, rosemarinic acid methyl ester, reference compound]    600

Next compound, IC50 to be filled in.
**Q:** API: value(readout= IC50, system= 5-lipoxygenase (Rattus norvegicus, UniProt P12527), query= `O=c1cc(-c2ccc(O)c(O)c2)oc2cc(O)cc(O)c12` )
**A:** 100
